FYI, the data here is from patent US20220411419A1.

test system: downmodulation of MHC-I molecules expressed on the surface of HIV infected SupT1 cells; assay: cells; settings: Human immunodeficiency virus 1, SUP-T1, read-out: EC50 for inhibition of MHC-I downmodulation utilizing the R1 parameter
Below is a list of entries, each paired with its recorded EC50 value.
Assay Readout: EC50 (nM)

>  <Smiles Text>
Cc1cccc2sc(NC(=O)COc3cccc4c3OC(C)(C)C4)nc12

>  <Assay Readout>
EC50

>  <Measure Unit>
nM

>  <Bound Type>
=

>  <Result Value>
3300

$$$$
>  <Smiles Text>
Cc1ccc(NC(=O)COc2cccc3c2OC(C)(C)C3)nc1

>  <Assay Readout>
EC50

>  <Measure Unit>
nM

>  <Bound Type>
=

>  <Result Value>
240

$$$$
>  <Smiles Text>
Cc1csc(N(C(=O)COc2cccc3c2OC(C)(C)C3)c2cccnc2)n1

>  <Assay Readout>
EC50

>  <Measure Unit>
nM

>  <Bound Type>
=

>  <Result Value>
880

$$$$
>  <Smiles Text>
CC1(C)Cc2cccc(OCC(=O)N(Cc3ccccc3)c3nc4c(s3)CCCC4)c2O1

>  <Assay Readout>
EC50

>  <Measure Unit>
nM

>  <Bound Type>
=

>  <Result Value>
2

$$$$
>  <Smiles Text>
Cc1csc(NC(=O)COc2cccc3c2OC(C)(C)C3)n1

>  <Assay Readout>
EC50

>  <Measure Unit>
nM

>  <Bound Type>
=

>  <Result Value>
620

$$$$
>  <Smiles Text>
Cc1ccc(NC(=O)COc2cccc3c2OC(C)(C)C3)nc1C

>  <Assay Readout>
EC50

>  <Measure Unit>
nM

>  <Bound Type>
=

>  <Result Value>
210

$$$$
>  <Smiles Text>
CC1(C)Cc2cccc(OCC(=O)Nc3nc(C(=O)NCc4ccco4)cs3)c2O1

>  <Assay Readout>
EC50

>  <Measure Unit>
nM

>  <Bound Type>
>

>  <Result Value>
25000

$$$$
>  <Smiles Text>
CC1(C)Cc2cccc(OCC(=O)Nc3nc4ccc(OC(F)(F)F)cc4s3)c2O1

>  <Assay Readout>
EC50

>  <Measure Unit>
nM

>  <Bound Type>
>

>  <Result Value>
25000

$$$$
>  <Smiles Text>
CN(C(=O)CCc1cccc2c1OC(C)(C)C2)c1nc2c(s1)CCCC2

>  <Assay Readout>
EC50

>  <Measure Unit>
nM

>  <Bound Type>
=

>  <Result Value>
420

$$$$
>  <Smiles Text>
Cn1ccnc1CN(C(=O)COc1cccc2c1OC(C)(C)C2)c1nc2c(s1)CCCC2

>  <Assay Readout>
EC50

>  <Measure Unit>
nM

>  <Bound Type>
=

>  <Result Value>
59

$$$$
>  <Smiles Text>
CC1(C)Cc2cccc(OCC(=O)Nc3nc4c(Br)cccc4s3)c2O1

>  <Assay Readout>
EC50

>  <Measure Unit>
nM

>  <Bound Type>
=

>  <Result Value>
120

$$$$
>  <Smiles Text>
CC(C)c1ccc(NC(=O)COc2cccc3c2OC(C)(C)C3)nc1

>  <Assay Readout>
EC50

>  <Measure Unit>
nM

>  <Bound Type>
=

>  <Result Value>
890

$$$$
>  <Smiles Text>
CC1(C)Cc2cccc(OCC(=O)Nc3cccc4nccnc34)c2O1

>  <Assay Readout>
EC50

>  <Measure Unit>
nM

>  <Bound Type>
>

>  <Result Value>
25000

$$$$
>  <Smiles Text>
Cc1csc(NC(=O)COc2cccc3[nH]ccc23)n1

>  <Assay Readout>
EC50

>  <Measure Unit>
nM

>  <Bound Type>
=

>  <Result Value>
1500

$$$$
>  <Smiles Text>
CC1(C)Cc2cccc(OCC(=O)Nc3ccc4c(n3)CCC4)c2O1

>  <Assay Readout>
EC50

>  <Measure Unit>
nM

>  <Bound Type>
=

>  <Result Value>
370

$$$$
>  <Smiles Text>
C=C(C)c1ccc(NC(=O)COc2cccc3c2OC(C)(C)C3)nn1

>  <Assay Readout>
EC50

>  <Measure Unit>
nM

>  <Bound Type>
=

>  <Result Value>
1100

$$$$
>  <Smiles Text>
Cc1cc2c(OCC(=O)N(C)c3nc4c(s3)CCCC4)cccc2[nH]1

>  <Assay Readout>
EC50

>  <Measure Unit>
nM

>  <Bound Type>
=

>  <Result Value>
13

$$$$
>  <Smiles Text>
COc1ccccc1OCC(=O)Nc1nc2cc(F)ccc2s1

>  <Assay Readout>
EC50

>  <Measure Unit>
nM

>  <Bound Type>
>

>  <Result Value>
25000

$$$$
>  <Smiles Text>
Cc1nc(N(Cc2ccccc2)C(=O)COc2cccc3c2OC(C)(C)C3)sc1C

>  <Assay Readout>
EC50

>  <Measure Unit>
nM

>  <Bound Type>
=

>  <Result Value>
210

$$$$
